target: human 5-HT4b receptor (Homo sapiens, UniProt Q13639); construct: expressed in transfected cells; host or cells: CHO cells (G418 selection); experiment: Test Example 4: Serotonin 4 (5-HT4) receptor agonist activity assay, cAMP HTRF in CHO cells (Table 100); type: cell-based; conditions: CHO, 0.25 h; intrinsic activity, maximal activity of 5-HT defined as 100%; mean value; read-out: IA (%)
Sequence (Q13639 whole entry): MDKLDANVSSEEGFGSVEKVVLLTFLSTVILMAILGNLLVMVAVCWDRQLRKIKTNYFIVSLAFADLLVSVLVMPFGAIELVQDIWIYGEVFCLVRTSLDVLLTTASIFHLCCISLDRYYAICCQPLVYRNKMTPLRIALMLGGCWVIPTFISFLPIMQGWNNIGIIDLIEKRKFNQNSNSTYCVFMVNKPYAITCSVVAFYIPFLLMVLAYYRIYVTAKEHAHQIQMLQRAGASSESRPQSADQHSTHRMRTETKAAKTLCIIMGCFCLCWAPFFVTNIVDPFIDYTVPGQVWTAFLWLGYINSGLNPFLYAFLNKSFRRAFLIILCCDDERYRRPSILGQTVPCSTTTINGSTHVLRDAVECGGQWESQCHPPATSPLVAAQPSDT
Counter-ions that a name gives are not always drawn.
endpoint.name: Emax (%)

CC(=O)N1CCC(N2C3CCC2CC(c2nc(-n4nc(C(C)C)c5cccc(F)c54)no2)C3)CC1 (stereo not shown)	110
CCc1nn(-c2noc(C3CCN(C4(C)CCN(C(=O)COC)CC4)CC3)n2)c2c(F)cccc12	72
CC(C)c1nn(-c2noc(C3CCN(C(C)C)CC3)n2)c2c(F)c(F)ccc12 [Example 450, trifluoroacetate]	87.7
CC(C)c1nn(-c2noc(C[C@@H]3CCN(CC4CN(C(=O)CO)C4)C3)n2)c2c(F)cccc12	73

---

biological target: human 5-HT4b receptor (Homo sapiens); construct: expressed in transfected cells; host or cells: CHO cells (G418 selection); test: Test Example 4: Serotonin 4 (5-HT4) receptor agonist activity assay, cAMP HTRF in CHO cells (Table 100); assay type: cell-based; conditions: CHO, 0.25 h; intrinsic activity, maximal activity of 5-HT defined as 100%; mean value; read-out: IA (%)
Counter-ions that a name gives are not always drawn.
endpoint.name: Emax (%)

COC(=O)N1CCC(N2CCC(c3nc(-n4nc(C(C)C)c5ccc(F)c(F)c54)no3)CC2)CC1 [Example 463, trifluoroacetate]	64.4
CCc1nn(-c2noc(C3CCN(C4(C)CCN(S(C)(=O)=O)CC4)CC3)n2)c2c(F)cccc12	78
CC(C)c1nn(-c2noc(C[C@@H]3CCN(C4CCN(C(=O)CO)CC4)C3)n2)c2c(F)cccc12	60
CC(=O)N1CCC(N2CCC(c3nc(-n4nc(C(C)C)c5ccc(F)c(F)c54)no3)CC2)CC1 [Example 464, trifluoroacetate]	70

---

target: human 5-HT4b receptor (Homo sapiens); construct: expressed in transfected cells; host or cells: CHO cells (G418 selection); assay: Test Example 4: Serotonin 4 (5-HT4) receptor agonist activity assay, cAMP HTRF in CHO cells (Table 100); assay type: cell-based; conditions: concentration showing 50% of IA; mean value
pEC50: −log10 of the molar value. Structures can show the parent of a compound that is named as a salt.
endpoint.name: pEC50

Example entries and their recorded answers appear below.
O=C(CO)N1CCC(N2CCC(c3nc(-n4nc(C5CC5)c5cccc(F)c54)no3)CC2)CC1 [Example 523]	8.54
CCc1nn(-c2noc(C3CCN(C4CCN(S(C)(=O)=O)CC4)CC3)n2)c2c(F)cccc12 [Example 241]	8.49
CCc1nn(-c2noc(C3CCN(CC4CN(C(=O)OC)C4)CC3)n2)c2c(F)c(F)ccc12 [Example 470, trifluoroacetate]	7.87

1. CCc1nn(-c2noc(C3CCN(C4(C)CCN(C(=O)CO)CC4)CC3)n2)c2c(F)cccc12 [Example 538]
2. COC(=O)N1CC(CN2CCC(c3nc(-n4nc(C(C)C)c5ccc(F)c(F)c54)no3)CC2)C1 [Example 474, trifluoroacetate]
Incoming: Hi there! Just curious which has the higher pEC50 between 1 and 2 . Mark your selection by writing its label.
Outgoing: 1
(1: 8.62, 2: 7.46)

I. CC(=O)N1CCC(N2CCC(c3nc(-n4nc(C(C)C)c5ccccc54)no3)CC2)CC1 [Example 458, trifluoroacetate]
II. CC(=O)N1CCC[C@H]1CN1CC[C@H](Cc2nc(-n3nc(C(C)C)c4cccc(F)c43)no2)C1 [Example 497]
III. CCc1nn(-c2noc(C3CCN(C[C@H]4CCN(C(=O)CO)C4)CC3)n2)c2c(F)cccc12 [Example 247]
IV. CCc1nn(-c2noc(C3CCN(C[C@@H]4CCN(S(C)(=O)=O)C4)CC3)n2)c2c(F)cccc12 [Example 203]
Incoming: Please rank these molecules by pEC50 in descending order. Answer by writing out the labels in the requested order.
Outgoing: IV, I, II, III
(IV: 8.96, I: 8.57, II: 8.24, III: 7.90)

1. CC(C)c1nn(-c2noc(C[C@H]3CCN(C[C@H]4CCCN4C(=O)CO)C3)n2)c2c(F)cccc12 [Example 541]
2. CCc1nn(-c2noc(C3CCN(C4(C)CCN(S(C)(=O)=O)CC4)CC3)n2)c2c(F)cccc12 [Example 492]
Incoming: Hi there! Just curious which has the higher pEC50 between 1 and 2 . Mark your selection by writing its label.
Outgoing: 2

P. CC(C)c1nn(-c2noc(C[C@@H]3CCN(C[C@@H]4CCCN4S(C)(=O)=O)C3)n2)c2c(F)cccc12 [Example 510]
Q. CC(C)c1nn(-c2noc(C3CCN(C[C@H]4CCCN4C(=O)CO)CC3)n2)c2c(F)cccc12 [Example 529, hydrochloride]
R. CCCc1nn(-c2noc(C3CCN(C4CCN(C(=O)CO)CC4)CC3)n2)c2c(F)cccc12 [Example 524]
Incoming: Give the ascending ranking of the items by reported pEC50. Answer by writing out the labels in the requested order.
Outgoing: R, P, Q
(R: 8.37, P: 8.57, Q: 8.92)
